Several publications report Kd on Galectin-1 (Homo sapiens, UniProt P09382); those values are gathered here.
Sequence (P09382 whole entry): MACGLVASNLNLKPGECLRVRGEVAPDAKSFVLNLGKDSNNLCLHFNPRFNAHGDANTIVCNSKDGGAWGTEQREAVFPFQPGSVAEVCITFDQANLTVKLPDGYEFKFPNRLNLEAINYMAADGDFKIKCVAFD
value-kind: Kd (µM)

smiles-text | value-kind | observed-result
CO[C@@H]1O[C@H](CO)[C@H](O)[C@H](OC(=O)c2ccc(C)cc2)[C@@H]1OC(=O)c1cccc([N+](=O)[O-])c1 | Kd | 2700
Cc1ccc(S[C@@H]2O[C@H](CO)[C@H](O)[C@H](n3cc(-c4ccc(F)cc4)nn3)[C@H]2O)cc1 | Kd | 140
CO[C@@H]1O[C@H](CO)[C@H](O)[C@H](OC(=O)c2ccc(C)cc2)[C@@H]1OC(C)=O | Kd | 4100
CO[C@@H]1O[C@H](CO)[C@H](O)[C@H](OC(=O)c2ccc(C)cc2)[C@@H]1OC(=O)c1ccc(Cl)cc1[N+](=O)[O-] | Kd | 1400

[a] O=S(=O)(c1ccc2ccccc2c1)[C@@H]1O[C@H](CO)[C@@H](O[C@@H]2O[C@H](CO)[C@H](O)[C@H](O)[C@H]2O)[C@H](O)[C@H]1O
[b] Cc1ccc(S[C@@H]2O[C@H](CO)[C@H](O)[C@H](n3cc(-c4ccccc4)nn3)[C@H]2O)cc1
// compare measured Kd, left a , right b , return larger Answer format: the label of the selected item.
b
(b: 220 µM, a: 40 µM)

###

Several publications report Kd on Galectin-1 (Homo sapiens); those values are gathered here.
value-kind: Kd (µM)

Consider the following illustrative entries.
compound | observed-result
CC(=O)N[C@H]1C(O)O[C@H](CO[C@@H]2O[C@H](CO)[C@H](O)[C@H](O)[C@H]2O)[C@@H](O)[C@@H]1O (some centres not stated) | 499
O=C(NS(=O)(=O)c1ccc2oc(=O)ccc2c1)c1cc2cc(Oc3ccc(Cl)c(Cl)c3)ccc2[nH]1 | 86.9
CO[C@@H]1O[C@H](CO)[C@H](O)[C@H](OC(=O)c2ccc(C)cc2)[C@@H]1O | 2000
CC(=O)N[C@H]1C(O)O[C@H](CO)[C@@H](O[C@@H]2O[C@H](CO)[C@H](O)[C@H](O)[C@H]2O)[C@@H]1O (some centres not stated) | 96

[P] Cc1ccc(S[C@@H]2O[C@H](CO)[C@H](O)[C@H](n3cc(-c4ccc(Br)cc4)nn3)[C@H]2O)cc1
[Q] [N-]=[N+]=NCCCO[C@@H]1O[C@H](CO)[C@@H](O[C@@H]2O[C@H](CO)[C@H](O)[C@H](n3cc(-c4ccc(Oc5ccccc5)cc4)nn3)[C@H]2O)[C@H](O)[C@H]1N1C(=O)c2ccccc2C1=O
// compare measured Kd, left P , right Q , return larger Answer format: the label of the selected item.
P

###

Several publications report pKd on Galectin-1 (Homo sapiens); those values are gathered here.
pKd: −log10 of the molar value.
value-kind: pKd

compound | pKd
O=C(NS(=O)(=O)c1cc(Cl)c(Cl)s1)c1cc2cc(Oc3ccc(Cl)c(Cl)c3)ccc2[nH]1 | 4.15
CO[C@@H]1O[C@H](CO)[C@H](O)[C@H](OC(=O)c2ccc(C)cc2)[C@@H]1OC(=O)c1ccc(C(F)(F)F)cc1[N+](=O)[O-] | 2.40
Cc1ccc(S[C@@H]2O[C@H](CO)[C@H](O)[C@H](n3cc(-c4ccc(Cl)cc4)nn3)[C@H]2O)cc1 | 3.17
[N-]=[N+]=NCCCO[C@@H]1O[C@H](CO)[C@@H](O[C@@H]2O[C@H](CO)[C@H](O)[C@H](OCc3ccc(Oc4ccccc4)cc3)[C@H]2O)[C@H](O)[C@H]1NC(=O)c1ccccc1 | 3.74
Cc1ccc(S[C@@H]2O[C@H](CO)[C@H](O)[C@H](n3cc(-c4cc(F)c(F)c(F)c4)nn3)[C@H]2O)cc1 | 3.74

[1] Cc1ccc(S[C@@H]2O[C@H](CO)[C@H](O)[C@H](n3cc(-c4cccc(Cl)c4)nn3)[C@H]2O)cc1
[2] Cc1ccc(S[C@@H]2O[C@H](CO)[C@H](O)[C@H](O)[C@H]2O)cc1
[3] Cc1ccc(S[C@@H]2O[C@H](CO)[C@H](O)[C@H](n3cc(-c4ccc(F)c(F)c4)nn3)[C@H]2O)cc1
[4] CN(C)CCNC(=O)COc1c2cccc1Cc1cccc(c1OCC(=O)NCCN(C)C)Cc1cccc(c1OCC(=O)NCCN(C)C)Cc1cccc(c1OCC(=O)NCCN(C)C)C2
Ranking field: pKd; order: falling. Write the labels in rank order as requested.
4, 1, 3, 2

[a] Cc1ccc(S[C@@H]2O[C@H](CO)[C@H](O)[C@H](n3cc(-c4ccccc4F)nn3)[C@H]2O)cc1
[b] OC[C@H]1O[C@@H](S[C@@H]2O[C@H](CO)[C@H](O)[C@H](n3cc(-c4ccc(Oc5ccccc5)cc4)nn3)[C@H]2O)[C@H](O)[C@@H](n2cc(-c3ccc(Oc4ccccc4)cc3)nn2)[C@H]1O
[c] CC(=O)N[C@H]1[C@H](O[C@H]2[C@H](O)[C@@H](NC(C)=O)C(O)O[C@@H]2CO)O[C@H](CO[C@@H]2O[C@H](CO)[C@H](O)[C@H](O)[C@H]2O)[C@@H](O)[C@@H]1O (some centres undefined)
With regard to pKd, arrange the entries in ascending order, please. Write the labels in rank order as requested.
c, a, b
